- targetOrSystem: FLT3 (Homo sapiens, UniProt P36888)
- Construct: purchased Eurofins
- Sequence (P36888 27-993): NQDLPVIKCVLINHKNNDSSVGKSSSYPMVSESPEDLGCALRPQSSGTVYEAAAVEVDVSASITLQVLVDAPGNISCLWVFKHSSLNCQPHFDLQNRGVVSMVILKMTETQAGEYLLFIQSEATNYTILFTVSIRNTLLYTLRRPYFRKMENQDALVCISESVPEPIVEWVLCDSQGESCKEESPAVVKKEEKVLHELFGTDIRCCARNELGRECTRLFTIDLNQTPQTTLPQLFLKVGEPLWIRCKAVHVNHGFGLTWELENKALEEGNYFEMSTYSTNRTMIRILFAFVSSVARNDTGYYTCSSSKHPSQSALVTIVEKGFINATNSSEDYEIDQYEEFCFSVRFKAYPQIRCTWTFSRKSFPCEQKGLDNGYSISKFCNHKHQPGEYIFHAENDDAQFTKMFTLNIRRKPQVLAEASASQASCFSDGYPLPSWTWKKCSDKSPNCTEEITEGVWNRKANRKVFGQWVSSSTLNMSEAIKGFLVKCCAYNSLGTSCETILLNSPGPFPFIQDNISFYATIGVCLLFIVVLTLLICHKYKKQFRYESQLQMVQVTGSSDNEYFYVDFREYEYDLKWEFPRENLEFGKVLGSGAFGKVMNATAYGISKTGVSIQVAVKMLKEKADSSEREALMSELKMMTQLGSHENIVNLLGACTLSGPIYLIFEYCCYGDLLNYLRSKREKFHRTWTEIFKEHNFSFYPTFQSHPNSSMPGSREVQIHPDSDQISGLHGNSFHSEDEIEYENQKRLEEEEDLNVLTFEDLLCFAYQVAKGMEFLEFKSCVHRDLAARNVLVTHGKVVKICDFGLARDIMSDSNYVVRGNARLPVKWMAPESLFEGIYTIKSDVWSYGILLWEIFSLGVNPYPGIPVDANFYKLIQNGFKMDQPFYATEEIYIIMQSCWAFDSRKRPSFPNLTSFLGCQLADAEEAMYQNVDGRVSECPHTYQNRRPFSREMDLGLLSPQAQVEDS
- measurementNotes: In vitro kinase activity experiment, FLT3
- Type: biochemical
- details: 40 min; inhibition rate of enzyme at 500 nM; measured by Eurofins; read-out: Kinase activity @ 500 nM (%) FLT3
# inhibition at 0.5 µM per record follows
Number in %, nothing else.

Known inhibition at 0.5 µM results, listed for orientation:
Cc1cnc(Nc2ccc(N3CCC(N(C)CCN4CCN(C(C)C)CC4)CC3)c(F)c2)nc1-c1cnn(C(C)C)c1 [CLJ-58] : 96
Cc1cnc(Nc2ccc(CNC(=O)CCl)cc2)nc1-c1cnn(C(C)C)c1 [CLJ-85] : 67
COc1cc(Nc2ncc(F)c(-c3cnn(C(C)C)c3)n2)ccc1N1CCN(C)CC1 [CLJ-28] : 21

**Q:** Sample Cc1cnc(Nc2ccc(N3CCC(N(C)CCN4CCCCC4)CC3)c(F)c2)nc1-c1cnn(C(C)C)c1 [CLJ-55] — what was its inhibition at 0.5 µM?
**A:** 20

**Q:** Same thing, different compound: Cc1cnc(Nc2ccc(N3CCC4(CC3)CNC4)c(F)c2)nc1-c1cnn(C(C)C)c1 [CLJ-66]
**A:** 94

**Q:** Same thing, different compound: Cc1cnc(Nc2ccc(CCNC(=O)CCCN(C)C)cc2)nc1-c1cnn(C(C)C)c1 [CLJ-84]
**A:** 78

**Q:** Same thing, different compound: CCCN1CCN(CCN(C)C2CCN(c3ccc(Nc4ncc(C)c(-c5cnn(C(C)C)c5)n4)cc3F)CC2)CC1 [CLJ-57]
**A:** 96

* * *

# Kinase activity @ 500 nM (%) JAK2 per record follows
- targetOrSystem: JAK2 (Homo sapiens)
- Construct: purchased Eurofins
- measurementNotes: In vitro kinase activity experiment, JAK2
- Assay type: biochemical
- details: inhibition rate of enzyme at 500 nM; measured by Eurofins
Number in %, nothing else.

**Q:** Sample `Cc1cnc(Nc2ccc(CCNC(=O)/C=C/C(=O)c3ccccc3)cc2)nc1-c1cnn(C(C)C)c1` — what was its Kinase activity @ 500 nM (%) JAK2?
**A:** 20

**Q:** Same thing, different compound: CCCn1cc(-c2nc(Nc3cc(CN4CCCC(C)C4)c(F)cn3)ncc2F)cn1 (stereo not drawn)
**A:** 38

**Q:** Same thing, different compound: `CCN1CCN(c2ccc(Nc3ncc(F)c(-c4ccc(CN5CCCC5)o4)n3)nc2)CC1`
**A:** 30

**Q:** Same thing, different compound: `Cc1cnc(Nc2ccc(NC(=O)[C@H]3CCCN3)c(F)c2)nc1-c1cnn(C(C)C)c1`
**A:** 100

**Q:** Same thing, different compound: `CC(C)n1cc(-c2nc(Nc3ccc(N4CCC(N(C)C)CC4)c(F)c3)ncc2F)cn1`
**A:** 97

**Q:** Same thing, different compound: `CCCN1CCC(n2cc(-c3nc(Nc4ccc(N5CCN(C)CC5)c(F)c4)ncc3F)cn2)CC1`
**A:** 27

* * *

- targetOrSystem: JAK2 (Homo sapiens, UniProt O60674)
- Construct: purchased Eurofins
- Sequence (O60674 whole entry): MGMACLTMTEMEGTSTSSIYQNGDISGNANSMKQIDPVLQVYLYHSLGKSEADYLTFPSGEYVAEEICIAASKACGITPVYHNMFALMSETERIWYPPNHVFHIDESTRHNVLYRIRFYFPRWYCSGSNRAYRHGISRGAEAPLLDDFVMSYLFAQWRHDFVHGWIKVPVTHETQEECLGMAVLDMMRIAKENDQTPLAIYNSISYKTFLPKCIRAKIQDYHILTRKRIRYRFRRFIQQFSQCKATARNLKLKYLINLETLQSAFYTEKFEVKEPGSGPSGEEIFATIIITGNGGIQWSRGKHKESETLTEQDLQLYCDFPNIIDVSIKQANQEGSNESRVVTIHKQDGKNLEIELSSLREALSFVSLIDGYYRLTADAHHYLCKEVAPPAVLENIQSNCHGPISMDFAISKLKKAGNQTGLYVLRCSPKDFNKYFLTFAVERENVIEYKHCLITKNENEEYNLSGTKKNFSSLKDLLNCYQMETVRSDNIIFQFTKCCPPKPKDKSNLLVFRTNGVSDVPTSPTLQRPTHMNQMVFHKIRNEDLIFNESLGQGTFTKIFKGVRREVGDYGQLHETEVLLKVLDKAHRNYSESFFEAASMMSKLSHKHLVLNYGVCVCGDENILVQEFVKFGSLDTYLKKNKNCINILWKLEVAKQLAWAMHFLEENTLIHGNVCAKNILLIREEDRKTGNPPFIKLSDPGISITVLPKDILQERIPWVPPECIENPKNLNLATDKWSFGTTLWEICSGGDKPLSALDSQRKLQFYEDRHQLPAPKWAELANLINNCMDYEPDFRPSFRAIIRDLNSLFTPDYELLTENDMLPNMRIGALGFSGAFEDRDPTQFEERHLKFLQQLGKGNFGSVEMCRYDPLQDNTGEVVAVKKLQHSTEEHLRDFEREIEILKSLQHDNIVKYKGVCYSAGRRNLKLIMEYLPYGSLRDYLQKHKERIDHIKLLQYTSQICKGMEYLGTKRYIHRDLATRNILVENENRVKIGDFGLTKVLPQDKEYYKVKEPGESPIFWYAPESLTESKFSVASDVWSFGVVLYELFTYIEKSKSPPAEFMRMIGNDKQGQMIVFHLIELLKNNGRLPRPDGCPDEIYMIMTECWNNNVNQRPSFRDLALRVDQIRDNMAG
- measurementNotes: In vitro kinase activity experiment, JAK2
- Format: biochemical
- details: inhibition rate of enzyme at 500 nM; measured by Eurofins
Values of Kinase activity @ 500 nM (%) JAK2 strictly less than 90% map to rule met, and values of at least 90% map to rule not met.

Cc1cnc(Nc2ccc(CCNC(=O)/C=C/CN(C)C)cc2)nc1-c1cnn(C(C)C)c1 : rule met

**Q:** In the record for `Cc1cnc(Nc2ccc(N3CCC4(CC3)CNC4)c(F)c2)nc1-c1cnn(C(C)C)c1` , is Kinase activity @ 500 nM (%) JAK2 less than 90%?
**A:** rule not met

**Q:** Same thing, different molecule: `CN1CCN(c2ccc(Nc3ncc(F)c(-c4cnn(C5CCCC5)c4)n3)cc2F)CC1`
**A:** rule not met

**Q:** Same thing, different molecule: `CCOCCN(C)C1CCN(c2ccc(Nc3ncc(C)c(-c4cnn(C(C)C)c4)n3)cc2F)CC1`
**A:** rule not met

**Q:** Same thing, different molecule: `Cc1cnc(Nc2ccc(CNC(=O)CCl)cc2)nc1-c1cnn(C(C)C)c1`
**A:** rule met

**Q:** Same thing, different molecule: `CCCn1cc(-c2nc(Nc3ccc(N4CCN(C)CC4)cc3F)ncc2F)cn1`
**A:** rule met

**Q:** Same thing, different molecule: `CC(C)n1cc(-c2nc(Nc3ccc(N4CCC(N5CCCCC5)CC4)c(F)c3)ncc2F)cn1`
**A:** rule met

**Q:** Same thing, different molecule: `CCCn1cc(-c2nc(Nc3cc(CN4CCN(CC)CC4)c(F)cn3)ncc2F)cn1`
**A:** rule met

**Q:** Same thing, different molecule: `CCCN(CCN1CCOCC1)C1CCN(c2ccc(Nc3ncc(C)c(-c4cnn(C(C)C)c4)n3)cc2F)CC1`
**A:** rule not met

**Q:** Same thing, different molecule: `Cc1cnc(Nc2ccc(N3CCC(N(C)CCN4CCOCC4)CC3)c(F)c2)nc1-c1cnn(C(C)C)c1`
**A:** rule met

**Q:** Same thing, different molecule: `CC(C)n1cc(-c2nc(Nc3ccc(N4CCN(C)CC4)c(F)c3)ncc2F)cn1`
**A:** rule met

**Q:** Same thing, different molecule: `Cc1cnc(Nc2ccc(NS(=O)(=O)c3ccc(C(F)(F)F)cc3)c(F)c2)nc1-c1cnn(C(C)C)c1`
**A:** rule not met

**Q:** Same thing, different molecule: `CC(C)N1CCN(Cc2ccc(Nc3ncc(F)c(-c4ccc(CN5CCCC5)o4)n3)nc2)CC1`
**A:** rule met

**Q:** Same thing, different molecule: `CC(C)n1cc(-c2nc(Nc3ccc(N4CCN(C)CC4)cc3)ncc2F)cn1`
**A:** rule met

**Q:** Same thing, different molecule: `CN(C)C1CCN(c2ccc(Nc3ncc(F)c(-c4cnn(C5CCCC5)c4)n3)cc2F)CC1`
**A:** rule not met

**Q:** Same thing, different molecule: `CC(C)n1cc(-c2nc(Nc3ccc(N4CCCC4)c(F)c3)ncc2F)cn1`
**A:** rule met

**Q:** Same thing, different molecule: `Cc1cnc(Nc2ccc(N3CCC(N(C)CCO)CC3)c(F)c2)nc1-c1cn(C(C)C)nc1S(C)(=O)=O`
**A:** rule not met

**Q:** Same thing, different molecule: `CCCN1CCC(n2cc(-c3nc(Nc4ccc(N5CCN(C)CC5)cc4)ncc3F)cn2)CC1`
**A:** rule met

**Q:** Same thing, different molecule: `Cc1cnc(Nc2ccc(N3CCC(N(C)CCO)CC3)c(F)c2)nc1-c1cnn(C(C)C)c1`
**A:** rule not met

* * *

- targetOrSystem: FLT3 (Homo sapiens)
- Construct: purchased Eurofins
- measurementNotes: In vitro kinase activity experiment, FLT3
- Format: biochemical
- details: 40 min; inhibition rate of enzyme at 500 nM; measured by Eurofins; read-out: Kinase activity @ 500 nM (%) FLT3
We use 90% as the dividing line for inhibition at 0.5 µM: on or above the line is yes, below is no.

Solved cases below.
Cc1cnc(Nc2ccc(N3CCC(N(C)CC4CC4)CC3)c(F)c2)nc1-c1cnn(C(C)C)c1 [CLJ-52] : yes
Cc1cnc(Nc2ccc(NC(=O)[C@H]3C[C@H](F)CN3)c(F)c2)nc1-c1cnn(C(C)C)c1 [CLJ-97] : yes
Cc1cnc(Nc2ccc(CNC(=O)CCCl)cc2)nc1-c1cnn(C(C)C)c1 [CLJ-87] : no
Cc1cnc(Nc2ccc(N3CCC(N(C)CCN4CCN(C)CC4)CC3)c(F)c2)nc1-c1cnn(C(C)C)c1 [CLJ-56] : yes
CC(C)n1cc(-c2nc(Nc3ccc(N4CCN(C)CC4)cc3)ncc2F)cn1 [CLJ-22] : no

Below: the item to evaluate.
**Q:** Does the molecule CC(C)n1cc(-c2nc(Nc3ccc(N4CCN(C5CCN(C)CC5)CC4)c(F)c3)ncc2F)cn1 [CLJ-32] have recorded inhibition at 0.5 µM that is 90% or more?
**A:** yes
